Assignment: determine reported ED30 for the given compounds.
Target: Adrenergic receptor beta (Rattus norvegicus) (UniProt P18090+P10608+P26255)
Sequence (P18090 whole entry, looked up): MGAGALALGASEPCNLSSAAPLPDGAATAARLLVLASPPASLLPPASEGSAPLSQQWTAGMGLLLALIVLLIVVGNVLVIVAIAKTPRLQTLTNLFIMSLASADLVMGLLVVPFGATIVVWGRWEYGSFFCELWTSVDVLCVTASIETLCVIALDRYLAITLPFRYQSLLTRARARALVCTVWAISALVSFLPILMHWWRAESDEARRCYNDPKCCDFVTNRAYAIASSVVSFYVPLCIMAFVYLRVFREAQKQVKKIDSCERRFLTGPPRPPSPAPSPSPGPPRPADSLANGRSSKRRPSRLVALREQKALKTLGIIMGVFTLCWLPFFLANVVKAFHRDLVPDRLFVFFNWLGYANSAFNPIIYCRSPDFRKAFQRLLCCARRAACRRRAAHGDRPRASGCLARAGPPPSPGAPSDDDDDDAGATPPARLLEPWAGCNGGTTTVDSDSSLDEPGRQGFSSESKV
Experimental details: Beta agonist activity against heart rate in rats
Type: functional, tissue-based

Worked cases, answers included:
CC(C)NCC(O)COc1ccc(SCCn2cccn2)cc1 (stereo not given) = > 1 mg/kg
CC(C)NCC(O)COc1ccc(OCCn2nc3ccccc3n2)cc1 (stereo not given) = > 1 mg/kg
CC(C)NCC(O)COc1ccc(OCCn2cc(Cl)cn2)cc1 (stereo not given) = 0.194 mg/kg
CC(C)NCC(O)COc1ccc(OCCn2ccnc2)cc1 (stereo not given) = > 1 mg/kg

Now examine the next entry.
State its ED30 on Adrenergic receptor beta (Rattus norvegicus) (UniProt P18090+P10608+P26255): CC(C)NCC(O)COc1ccc(Cn2cccn2)cc1 (stereo not given)
> 1 mg/kg

---

Target: Beta-1 adrenergic receptor (Rattus norvegicus)
Experimental details: Inhibition of isoprenaline induced tachycardia in anaesthetised rats.
Type: functional
Parameter measured: ED50 (mg/kg)
Answers are plain numbers, in mg/kg.

Example cases with answers are listed next.
CC(C)NCC(O)COc1ccc(OCCn2nc3c(n2)CCCC3)cc1 (stereo unspecified) = 0.057
CC(C)NCC(O)COc1ccc(OCCCn2cncn2)cc1 (stereo unspecified) = 0.68
CC(C)NCC(O)COc1ccc(CCn2cccn2)cc1 (stereo unspecified) = 0.209
CC(C)NCC(O)COc1ccc(OCCn2nccn2)cc1 (stereo unspecified) = 0.014
CC(C)NCC(O)COc1ccc(Cn2cccn2)cc1 (stereo unspecified) = 0.598

I need ED50 for every entry listed below, if you could help.
1. CC(C)NCC(O)COc1ccc(OCn2nccn2)cc1 (stereo unspecified)
2. CC(C)NCC(O)COc1ccc(OCCCn2cccn2)cc1 (stereo unspecified)
3. CC(C)NCC(O)COc1ccc(OCn2cc(Cl)cn2)cc1 (stereo unspecified)
4. CC(C)NCC(O)COc1ccc(OCCn2cncn2)cc1 (stereo unspecified)
5. CC(C)NCC(O)COc1ccc(SCCn2cccn2)cc1 (stereo unspecified)
6. CC(C)NCC(O)COc1ccc(OCCn2cccn2)cc1 (stereo unspecified)

1. 0.011
2. 0.334
3. 0.004
4. 0.17
5. 0.128
6. 0.05
